target: human furin (Homo sapiens); test: Human furin inhibition, hydrolysis of Ac-RVRR-MCA; assay type: biochemical; details: 10 μM inhibitor, 36.5° C.
Sequence (P09958 108-794): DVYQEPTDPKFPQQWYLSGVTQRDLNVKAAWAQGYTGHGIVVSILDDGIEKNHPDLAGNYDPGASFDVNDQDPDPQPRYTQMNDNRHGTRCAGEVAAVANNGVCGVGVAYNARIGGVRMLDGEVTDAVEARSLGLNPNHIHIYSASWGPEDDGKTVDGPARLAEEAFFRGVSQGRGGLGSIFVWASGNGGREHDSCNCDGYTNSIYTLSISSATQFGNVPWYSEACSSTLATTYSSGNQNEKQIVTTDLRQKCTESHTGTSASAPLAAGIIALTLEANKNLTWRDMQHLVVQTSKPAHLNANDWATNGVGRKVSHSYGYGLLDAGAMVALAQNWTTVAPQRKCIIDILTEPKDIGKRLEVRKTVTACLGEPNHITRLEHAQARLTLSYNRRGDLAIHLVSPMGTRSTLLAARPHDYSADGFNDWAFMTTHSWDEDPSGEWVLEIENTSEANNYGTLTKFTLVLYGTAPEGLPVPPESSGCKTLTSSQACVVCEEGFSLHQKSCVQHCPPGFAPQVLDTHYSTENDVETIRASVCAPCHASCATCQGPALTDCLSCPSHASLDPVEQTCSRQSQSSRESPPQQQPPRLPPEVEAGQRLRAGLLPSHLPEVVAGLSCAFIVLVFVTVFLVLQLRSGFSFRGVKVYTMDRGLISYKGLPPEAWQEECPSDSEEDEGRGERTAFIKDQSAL
Residues, ends and D or L forms follow the SMILES beside them.
VALUE_TYPE: activity at 10 µM (%)
Numeric answer only, unit % assumed.

{"COMPOUND": "CCCCCCCCCCCCCCCCNC(=O)[C@H](CCCCN)NC(=O)CNC(=O)CNC(=O)CNC(=O)[C@H](CCCCN)NC(=O)CCCCCCCCCCCCCCC [C16-KGGGK-C16, C15H31CO-KGGGK-NH—C16H33] (HELM PEPTIDE1{[CCCCCCCCCCCCCCCC(=O)[*:2]].K.G.G.G.K.[CCCCCCCCCCCCCCCCN[*:1]]}$$$$V2.0)", "QUANTITATIVE_READOUT": 35}

Attention now turns to another entry.
// recorded activity at 10 µM for CCCCCCCCCCCCCCCCNC(=O)[C@H](CCCCN)NC(=O)CNC(=O)CNC(=O)CNC(=O)CNC(=O)[C@H](CCCCN)NC(=O)CCCCCCCCCCCCCCC [C16KG4KC16] (HELM PEPTIDE1{[CCCCCCCCCCCCCCCC(=O)[*:2]].K.G.G.G.G.K.[CCCCCCCCCCCCCCCCN[*:1]]}$$$$V2.0) : 64

---

biological target: dengue 2 protease (Dengue virus type 2); construct: The active site of the dengue protease is in the N-terminal part of NS3; assay: Dengue 2 protease inhibition, hydrolysis of Z-RR-MCA; assay type: biochemical, dengue 2 virus; conditions: 2.5 μM inhibitor, 36.5° C.
Residues, ends and D or L forms follow the SMILES beside them.
// reported activity at 2.5 µM for each item listed
Note: unit % is implicit; provide only the numeric part.

Value (activity at 2.5 µM, dengue 2 protease (Dengue virus type 2)) for record CCCCCCCCCCCCCCCCNC(=O)[C@H](CCCCN)NC(=O)[C@H](C)NC(=O)[C@H](C)NC(=O)[C@H](CCCCN)NC(=O)CCCCCCCCCCCCCCC [C16-KAAK-C16] (HELM PEPTIDE1{[CCCCCCCCCCCCCCCC(=O)[*:2]].K.A.A.K.[CCCCCCCCCCCCCCCCN[*:1]]}$$$$V2.0) = 89

---

Target: dengue 2 protease (Dengue virus type 2, UniProt P14340)
Construct: The active site of the dengue protease is in the N-terminal part of NS3
Sequence (P14340 1476-1653): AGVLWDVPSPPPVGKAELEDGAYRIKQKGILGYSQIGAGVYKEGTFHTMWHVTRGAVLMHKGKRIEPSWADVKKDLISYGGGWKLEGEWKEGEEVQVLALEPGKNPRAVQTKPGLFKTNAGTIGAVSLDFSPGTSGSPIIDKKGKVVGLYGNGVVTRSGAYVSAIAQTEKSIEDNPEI
Test: Dengue 2 protease inhibition in presence of Triton X-100 (detergent test, Nature Protocol)
Format: biochemical, dengue 2 virus
Conditions: 30 μM of inhibitor, 0.05% Triton X-100
Source text: A further investigation of the interactions of the geminoid inhibitors with biological membranes and with membrane-bound proteases is needed. […] The preparation and tests of peptides symmetrically, asymmetrically and singly alkylated with saturated, short (C6), and unsaturated (C18:1) alkyl tails are in progress.
Residues, ends and D or L forms follow the SMILES beside them.
VALUE_TYPE: % recovery in presence of Triton (%)
Respond numerically; units are % and should not be typed.

{"COMPOUND": "CCCCCCCCCCCCCCCCNC(=O)[C@H](CCCCN)NC(=O)[C@H](C)NC(=O)[C@H](C)NC(=O)[C@H](C)NC(=O)[C@H](CCCCN)NC(=O)CCCCCCCCCCCCCCC [C16-KAAAK-C16] (HELM PEPTIDE1{[CCCCCCCCCCCCCCCC(=O)[*:2]].K.A.A.A.K.[CCCCCCCCCCCCCCCCN[*:1]]}$$$$V2.0)", "STUDY_SYSTEM": "dengue 2 protease (Dengue virus type 2, UniProt P14340)", "UNIT_TAG": "%", "QUANTITATIVE_READOUT": 50}

Given item CCCCCCCCCCCCCCCCNC(=O)[C@H](CCCCN)NC(=O)CNC(=O)CNC(=O)CNC(=O)CNC(=O)[C@H](CCCCN)NC(=O)CCCCCCCCCCCCCCC [C16KG4KC16] (HELM PEPTIDE1{[CCCCCCCCCCCCCCCC(=O)[*:2]].K.G.G.G.G.K.[CCCCCCCCCCCCCCCCN[*:1]]}$$$$V2.0) , the value recorded as its % recovery in presence of Triton is 63

response.value for CCCCCCCCCCCCCCCCNC(=O)[C@H](CCCCN)NC(=O)CNC(=O)CNC(=O)CNC(=O)[C@H](CCCCN)NC(=O)CCCCCCCCCCCCCCC [C16-KGGGK-C16, C15H31CO-KGGGK-NH—C16H33] (HELM PEPTIDE1{[CCCCCCCCCCCCCCCC(=O)[*:2]].K.G.G.G.K.[CCCCCCCCCCCCCCCCN[*:1]]}$$$$V2.0) (field: % recovery in presence of Triton) = 75

Reported % recovery in presence of Triton of CCCCCCCCCCCCCCCCNC(=O)[C@H](CCCNC(=N)N)NC(=O)[C@H](C)NC(=O)[C@H](C)NC(=O)[C@H](CCCNC(=N)N)NC(=O)CCCCCCCCCCCCCCC [C16RA2RC16] (HELM PEPTIDE1{[CCCCCCCCCCCCCCCC(=O)[*:2]].R.A.A.R.[CCCCCCCCCCCCCCCCN[*:1]]}$$$$V2.0) : 61

Record CCCCCCCCCCCCCCCCNC(=O)[C@H](CCCCN)NC(=O)[C@H](CCCCN)NC(=O)CCCCCCCCCCCCCCC [C16-KK-C16, C15H31CO-KK-NH—C16H33] . Reported % recovery in presence of Triton: 52

CCCCCCCCCCCCNC(=O)[C@H](CCCCN)NC(=O)[C@H](CCCCN)NC(=O)CCCCCCCCCCC [C12KKC12, n-C11H23C(O)-Lys-Lys-(n-C12H25).2TFA] has a reported % recovery in presence of Triton of 82

Recorded % recovery in presence of Triton (compound "CCCCCCCCCCCCCCCCNC(=O)[C@H](CCCCN)NC(=O)[C@H](C)NC(=O)[C@H](CCCCN)NC(=O)CCCCCCCCCCCCCCC" ): 41
